- MEASURED TARGET: mouse ADAMTS7 (Mus musculus)
- Construct: Full-length mouse Adamts7 1-1857 (Uniprot Q68SA9, WT or E373Q catalytic mutant); expressed in transfected cells; host or cells: Human Coronary Artery Smooth Muscle Cells (HCA-SMC, Lonza), adenovirus 50 MOI
- Sequence (Q68SA9 221-1657): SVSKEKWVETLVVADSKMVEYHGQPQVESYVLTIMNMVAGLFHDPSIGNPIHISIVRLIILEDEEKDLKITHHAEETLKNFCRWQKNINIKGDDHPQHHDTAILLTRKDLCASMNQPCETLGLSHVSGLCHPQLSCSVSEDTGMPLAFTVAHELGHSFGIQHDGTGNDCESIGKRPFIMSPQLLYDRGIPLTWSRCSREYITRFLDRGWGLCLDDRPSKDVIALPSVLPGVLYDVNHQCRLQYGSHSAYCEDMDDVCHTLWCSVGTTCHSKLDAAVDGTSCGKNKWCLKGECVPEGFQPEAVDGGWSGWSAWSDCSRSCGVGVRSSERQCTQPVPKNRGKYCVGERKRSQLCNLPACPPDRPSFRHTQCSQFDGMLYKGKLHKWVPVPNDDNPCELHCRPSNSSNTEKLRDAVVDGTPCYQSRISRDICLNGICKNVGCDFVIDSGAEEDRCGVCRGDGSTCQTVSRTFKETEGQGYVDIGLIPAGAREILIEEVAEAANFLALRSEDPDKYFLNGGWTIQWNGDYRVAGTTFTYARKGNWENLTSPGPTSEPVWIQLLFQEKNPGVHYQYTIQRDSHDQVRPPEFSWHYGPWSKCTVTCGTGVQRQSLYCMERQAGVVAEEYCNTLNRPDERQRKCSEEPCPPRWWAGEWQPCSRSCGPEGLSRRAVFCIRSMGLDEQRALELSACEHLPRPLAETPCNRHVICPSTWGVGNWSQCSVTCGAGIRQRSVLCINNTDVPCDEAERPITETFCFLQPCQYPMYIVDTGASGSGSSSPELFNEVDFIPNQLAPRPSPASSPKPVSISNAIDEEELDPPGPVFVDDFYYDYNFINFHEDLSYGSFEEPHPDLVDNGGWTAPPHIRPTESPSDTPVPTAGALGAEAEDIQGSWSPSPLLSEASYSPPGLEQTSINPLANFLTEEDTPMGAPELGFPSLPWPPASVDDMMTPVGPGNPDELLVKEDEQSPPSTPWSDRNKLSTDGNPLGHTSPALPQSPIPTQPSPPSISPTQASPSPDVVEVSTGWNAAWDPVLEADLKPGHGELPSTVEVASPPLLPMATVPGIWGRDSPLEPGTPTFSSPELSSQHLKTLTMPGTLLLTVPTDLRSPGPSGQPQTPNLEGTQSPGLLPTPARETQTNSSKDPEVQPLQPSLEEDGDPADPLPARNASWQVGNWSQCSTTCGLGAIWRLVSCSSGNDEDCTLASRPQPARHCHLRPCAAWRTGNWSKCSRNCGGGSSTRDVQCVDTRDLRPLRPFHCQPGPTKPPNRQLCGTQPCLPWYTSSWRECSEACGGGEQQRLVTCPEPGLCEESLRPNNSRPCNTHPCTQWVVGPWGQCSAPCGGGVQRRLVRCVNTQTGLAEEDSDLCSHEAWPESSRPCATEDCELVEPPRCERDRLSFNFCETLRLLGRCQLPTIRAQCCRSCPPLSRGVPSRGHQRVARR
- TEST: TMT10 TAILS N-terminomics, HUVEC experiment (process replicates, trypsin/AspN digest)
- Assay type: cell-based, human
- PROTOCOL CONDITIONS: HUVEC TAILS HC; log fold change of N-terminal peptide, Ad-mADAMTS7 WT over Luc
READOUT LABEL: logFC.mWT.over.Luc

MAP4_815 (AVASTGPSSR; listed as Homo sapiens)	2.87
FLNA_1285 (LTQTGGPHVKAR; listed as Homo sapiens)	3.29
PSAP_301 (LVEPIKKH; listed as Homo sapiens)	2.38
FN1_2113 (FVTHPGY; listed as Homo sapiens)	1.05
EFEMP1_125_ (VAGPEMQTGR; listed as Homo sapiens)	2.34

(A) THBS1_630 (FGQGVEHATANK; listed as Homo sapiens)
(B) ERAP2_718 (ISENLKR; listed as Homo sapiens)
IN: From the recorded data, which exceeds the other in logFC.mWT.over.Luc: A or B ? Label of pick, please.
OUT: B
(B: 5.05, A: 2.27)
